Hello, the source for this data is patent US20120196899A1, in case you need it.

- assayComment: Plasma toxicokinetics after single i.v. bolus
- Type: in vivo, Sprague-Dawley rats
- experimentalParameters: both sexes, Sprague-Dawley, rat, plasma, intravenous, 1 mg/kg, Anatabine 1.0 mg/kg; male and female; 6 hr (1st 6 hr line), n=12; read-out: Avg. Conc. rat plasma, combined male and female
endpoint: concentration at 6 h
Returns: string containing the numeric result and its unit.

In: concentration at 6 h for C1=CCC(c2cccnc2)NC1 (racemic) [Anatabine, 1,2,3,6-tetrahydro-[2,3′]bipyridinyl] ?
Out: 24.3 ng/mL

====

- assayComment: Concentration in brain extracts after single i.v. bolus
- Format: in vivo, Sprague-Dawley rats
- experimentalParameters: both sexes, Sprague-Dawley, rat, brain, intravenous, 0.1 mg/kg, Anatabine 0.1 mg/kg; male and female; 6 hr; read-out: Avg. Conc. rat brain, combined male and female
endpoint: concentration at 6 h
Returns: string containing the numeric result and its unit.

In: concentration at 6 h for C1=CCC(c2cccnc2)NC1 (racemic) [Anatabine, 1,2,3,6-tetrahydro-[2,3′]bipyridinyl] ?
Out: 3.5 ng/g
